Sourced from the NIST ThermoML archive (doi:10.1016/j.jct.2012.08.010)

ASSAY METHOD TEXT: refractive index (Na D-line) (dimensionless); φn = volume fraction of the nth substance listed
APPLIED CONDITIONS: 288.15 K; 101 kPa; Liquid; Standard Abbe refractometry; φ2 = 0
Item-by-item account of refractive index

[
  {
    "COMPOUND": "CCc1ccccc1 [ethylbenzene] + C=C[Si]1(C)O[Si](C)(C=C)O[Si](C)(C=C)O[Si](C)(C=C)O1",
    "refractive index": 1.49834
  },
  {
    "COMPOUND": "Cc1ccccc1C [1,2-dimethylbenzene] + C=C[Si]1(C)O[Si](C)(C=C)O[Si](C)(C=C)O[Si](C)(C=C)O1",
    "refractive index": 1.50775
  },
  {
    "COMPOUND": "Cc1cccc(C)c1 [1,3-dimethylbenzene] + C=C[Si]1(C)O[Si](C)(C=C)O[Si](C)(C=C)O[Si](C)(C=C)O1",
    "refractive index": 1.49969
  },
  {
    "COMPOUND": "Cc1ccc(C)cc1 [1,4-dimethylbenzene] + C=C[Si]1(C)O[Si](C)(C=C)O[Si](C)(C=C)O[Si](C)(C=C)O1",
    "refractive index": 1.49836
  }
]
